- Assayed System: Long-chain-fatty-acid--AMP ligase FadD28 (Mycobacterium tuberculosis, UniProt P9WQ59)
- Sequence (P9WQ59 whole entry): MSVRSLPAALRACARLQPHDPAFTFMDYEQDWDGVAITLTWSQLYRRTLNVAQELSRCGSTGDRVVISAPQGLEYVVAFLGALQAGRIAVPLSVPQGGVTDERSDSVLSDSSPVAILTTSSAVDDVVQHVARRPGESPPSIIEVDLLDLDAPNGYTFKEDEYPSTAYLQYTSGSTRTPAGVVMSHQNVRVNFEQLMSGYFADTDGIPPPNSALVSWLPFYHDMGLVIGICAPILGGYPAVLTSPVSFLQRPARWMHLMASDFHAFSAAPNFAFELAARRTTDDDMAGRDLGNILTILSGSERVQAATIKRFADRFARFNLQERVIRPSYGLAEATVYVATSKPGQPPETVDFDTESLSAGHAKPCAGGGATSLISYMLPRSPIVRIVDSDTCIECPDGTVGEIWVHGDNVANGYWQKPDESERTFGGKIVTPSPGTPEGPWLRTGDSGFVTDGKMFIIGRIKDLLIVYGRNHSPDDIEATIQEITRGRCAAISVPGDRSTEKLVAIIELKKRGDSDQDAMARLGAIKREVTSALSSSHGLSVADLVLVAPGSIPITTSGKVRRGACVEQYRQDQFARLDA
- Experimental Protocol: Fluorescence polarization aasay to screen for inhibitors that compete for the binding of FadD28 to a bisubstrate Measured in Biochemical System Using Plate Reader - 2147-01_Inhibitor_Dose_CherryPick_Activity.
- Type: functional, Mycobacterium tuberculosis H37Rv
Calls of active or inactive are those of the source.
Answer with one of the outcomes given here: True for active, False for inactive

These solved cases illustrate the format of a correct answer.
{"Compound": "O=C(O)c1ccc2c(c1)C(=O)N(c1ccc(Nc3ccccc3)cc1)C2=O", "Classification": "False"}
{"Compound": "O=C(CS(=O)(=O)Cc1ccccc1)Nc1ccc(S(=O)(=O)N2CCCCCC2)cc1", "Classification": "True"}
{"Compound": "Nc1ncnc2c1ncn2[C@@H]1O[C@H](CNCc2ccc(OCC(=O)Nc3ccccn3)cc2)[C@@H](O)[C@H]1O", "Classification": "False"}
{"Compound": "CCc1cccc(NC(=O)CN2C(=O)NC3(CCCCCCC3)C2=O)c1", "Classification": "False"}
{"Compound": "Cc1cccc(S(=O)(=O)Nc2nc3ccccc3nc2Nc2cccc(C(=O)O)c2)c1", "Classification": "True"}

Turning now to a further record.
Dear all, I need the recorded test outcome for O=C(CN1C(=O)NC2(CCCc3ccccc32)C1=O)c1ccc(Br)cc1 (stereo unspecified) , thank you.
False

* * *

- System: Vero
- Experimental Protocol: cells
- Assay type: functional
- Cond: Chlorocebus sabaeus
The source made the active and inactive calls.
Metric: CC50

{"Molecule": "CCCCC(=O)NC(c1cccc([N+](=O)[O-])c1)c1ccc2cccnc2c1O (stereo not given)", "Readout Value": "1.23 µM (active)"}
{"Molecule": "COc1ccc(C2CC(c3cccs3)=NN2C(=O)CCl)cc1OC (stereo not given)", "Readout Value": "3.51 µM (active)"}
{"Molecule": "Cc1ccc2cc(C#N)c(NCCNC(S)=NCCCN(C)C)nc2c1C", "Readout Value": "15.1 µM (active)"}
{"Molecule": "Cc1c(C(=O)N2CCOCC2)sc(NC(=O)CCl)c1C#N", "Readout Value": "22.3 µM (active)"}

Return reported CC50. Input molecule: O=C(/C=C/c1ccc(O)cc1)c1ccc(O)cc1O
> 25 µM (active)

* * *

Reported IC50 by item:
- Assayed System: Rac GTPase-activating protein 1 (Homo sapiens, UniProt Q9H0H5)
- Sequence (Q9H0H5 whole entry): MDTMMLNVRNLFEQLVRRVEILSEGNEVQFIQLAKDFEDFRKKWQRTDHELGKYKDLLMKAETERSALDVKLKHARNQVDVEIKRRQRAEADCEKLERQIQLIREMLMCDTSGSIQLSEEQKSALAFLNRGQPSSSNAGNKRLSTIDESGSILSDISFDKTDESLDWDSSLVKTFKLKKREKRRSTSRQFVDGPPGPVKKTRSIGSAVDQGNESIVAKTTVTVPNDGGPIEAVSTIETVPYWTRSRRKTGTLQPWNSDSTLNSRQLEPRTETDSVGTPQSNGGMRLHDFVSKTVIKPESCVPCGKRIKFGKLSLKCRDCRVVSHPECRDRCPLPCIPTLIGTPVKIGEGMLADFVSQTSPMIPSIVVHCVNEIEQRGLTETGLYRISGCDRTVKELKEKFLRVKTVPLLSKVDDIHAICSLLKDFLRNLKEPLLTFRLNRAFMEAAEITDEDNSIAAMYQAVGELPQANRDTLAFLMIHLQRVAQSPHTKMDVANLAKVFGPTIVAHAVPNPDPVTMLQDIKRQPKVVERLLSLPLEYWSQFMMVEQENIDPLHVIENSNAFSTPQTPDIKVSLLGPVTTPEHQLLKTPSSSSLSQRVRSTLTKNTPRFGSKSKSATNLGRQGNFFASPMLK
- Experimental Protocol: MgcRacGAP GTPase-activating activity inhibitors, confirmation, biochemical, ADP Hunter fluorescence, primary and confirmatory (AID 624330)
- Format: functional
Activity calls are given as the source filed them.

Examples with answers:
{"Structure String": "CCOc1cc(/C=N\\n2nnnc2N)ccc1O", "Assayed System": "Rac GTPase-activating protein 1 (Homo sapiens, UniProt Q9H0H5)", "IC50": "32.1 µM (active)"}
{"Structure String": "Nc1ccc2[nH]c(-c3ccccc3)nc2c1", "Assayed System": "Rac GTPase-activating protein 1 (Homo sapiens, UniProt Q9H0H5)", "IC50": "30.2 µM (active)"}

Okay, next one:
Look up and report IC50, with Rac GTPase-activating protein 1 (Homo sapiens, UniProt Q9H0H5) as system, for Cc1ccc(C(=N)NOC(=O)N2c3ccccc3Sc3ccccc32)cc1
134 µM (active)

* * *

Record type: AC50 measurement. Applies to: Cytochrome P450 2C9 (Homo sapiens, UniProt P11712)

{"Molecule": "CSc1nc2nc3c(c(O)n2n1)CN(Cc1ccccc1)CC3", "Assayed System": "Cytochrome P450 2C9 (Homo sapiens, UniProt P11712)", "AC50": "15.8 µM (inconclusive)"}
{"Molecule": "CCOC(=O)c1ccc(NC(=O)C(=O)NCC2CCCO2)cc1 (centres undefined)", "Assayed System": "Cytochrome P450 2C9 (Homo sapiens, UniProt P11712)", "AC50": "25.1 µM (inconclusive)"}
{"Molecule": "O=C(Nc1ncc2c(n1)-c1ccccc1CC2)c1cccc(Cl)c1", "Assayed System": "Cytochrome P450 2C9 (Homo sapiens, UniProt P11712)", "AC50": "20 µM (inconclusive)"}
{"Molecule": "COc1ccc(CNc2ncnc3ccc(-c4ccc(N(C)C)cc4)cc23)c(OC)c1", "Assayed System": "Cytochrome P450 2C9 (Homo sapiens, UniProt P11712)", "AC50": "0.398 µM (inconclusive)"}

Input CCOC(=O)c1cc2sc(C)cc2n1CC(=O)N1CCN(C(=O)c2ccco2)CC1 , output reported AC50.
20 µM (inconclusive)

Consider the molecule O=C(CNC(=O)c1cccs1)NCC(=O)OCc1ccc(Cl)cc1 . State its measured AC50.
0.126 µM (inconclusive)

Recall and state the measured AC50 for COc1ccc(O[C@H]2C=C[C@@H](c3ccccc3)O[C@H]2CO/N=C\C[C@@H]2C=C[C@H](OC(C)=O)[C@H](COC(C)=O)O2)cc1 .
3.16 µM (inconclusive)

Give the reported value of AC50 for this record: COc1ccc2nc(N3CCCC(C(=O)NCCCN4CCN(C)CC4)C3)sc2c1 (centres undefined)
4.47 µM (inconclusive)

Fill in AC50 for record Cc1nc2cnc(N3CCOCC3)nc2n(Cc2cccs2)c1=O
15.8 µM (inconclusive)

* * *

- Assayed System: Protein skinhead-1 (Caenorhabditis elegans)
- Sequence (P34707 whole entry): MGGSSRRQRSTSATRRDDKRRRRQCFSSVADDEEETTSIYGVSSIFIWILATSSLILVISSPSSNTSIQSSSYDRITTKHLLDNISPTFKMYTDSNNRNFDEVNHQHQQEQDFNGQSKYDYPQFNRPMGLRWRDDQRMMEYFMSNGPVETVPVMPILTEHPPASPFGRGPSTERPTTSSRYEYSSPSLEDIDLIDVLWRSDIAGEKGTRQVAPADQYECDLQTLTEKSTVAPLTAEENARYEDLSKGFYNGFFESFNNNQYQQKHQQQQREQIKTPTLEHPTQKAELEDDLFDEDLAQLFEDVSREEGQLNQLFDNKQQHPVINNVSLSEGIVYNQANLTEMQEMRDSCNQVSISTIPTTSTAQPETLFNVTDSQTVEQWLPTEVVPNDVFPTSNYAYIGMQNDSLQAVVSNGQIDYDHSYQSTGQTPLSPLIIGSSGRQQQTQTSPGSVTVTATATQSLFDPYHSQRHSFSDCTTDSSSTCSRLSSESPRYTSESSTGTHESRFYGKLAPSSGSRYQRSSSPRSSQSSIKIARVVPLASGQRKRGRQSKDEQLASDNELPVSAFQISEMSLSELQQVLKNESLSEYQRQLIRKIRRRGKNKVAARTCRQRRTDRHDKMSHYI
- Format: functional
Active and inactive are the calls of the source.
Metric: IC50

Consider the worked cases shown below.
{"Compound": "CCOC(=O)c1cc(-c2ccco2)nc2c1c(C)nn2-c1ccccc1", "Readout Value": "> 100 µM (inactive)"}
{"Compound": "Cn1c(=O)c2ncn(CC(=O)Nc3ccc4c5c(cccc35)CC4)c2n(C)c1=O", "Readout Value": "> 100 µM (inactive)"}
{"Compound": "COc1ccc(C(C)=O)cc1CN1C(=O)C(C)ON=C1c1cccc(C(F)(F)F)c1 (stereo not drawn)", "Readout Value": "> 100 µM (inactive)"}
{"Compound": "Cc1ccc(C)c(NC(=O)c2sc(Cl)nc2-c2ccccc2)c1", "Readout Value": "> 100 µM (inactive)"}
{"Compound": "c1ccc(CCNc2ncnc3c2cnn3-c2ccccc2)cc1", "Readout Value": "> 100 µM (inactive)"}

# evaluate next
Please report the measured IC50 for CC(C)CC(C(=O)NCc1ccccn1)N1C(=O)c2ccccc2C1=O (stereo not drawn)
> 100 µM (inactive)
